FYI, the data here is from ChEMBL document CHEMBL1201862.

# Test system: SF-268
# TEST DESCRIPTION: NCI tumour cell line growth inhibition, 48 h
The source made the active and inactive calls. No stated cut-off is given here; in the data, active = GI50 up to about 1.1 µM and inactive = higher.
Exercise: state measured GI50 for each of the compounds provided.

Input line: # get_value(readout= GI50, system= SF-268) for COc1ccc(OC)c(/C(C)=N/NC(N)=S)c1
Output line: > 100 µM (inactive)

Input line: # get_value(readout= GI50, system= SF-268) for Cc1nnc2n1-c1ccccc1N(Cc1ccccc1)CC2
Output line: 58.9 µM (inactive)

Input line: # get_value(readout= GI50, system= SF-268) for COc1ccc(OC)c(NC(=O)c2c(Cl)c(Cl)c(Cl)c(Cl)c2-c2nc3ccccc3[nH]2)c1
Output line: > 100 µM (inactive)

Input line: # get_value(readout= GI50, system= SF-268) for NCCCN1c2ccccc2Sc2ccc(Cl)cc21
Output line: 8.17 µM (inactive)

Input line: # get_value(readout= GI50, system= SF-268) for CC1C2C=C(O)C(=O)C(C2=O)C1c1ccccc1 (stereo not drawn)
Output line: > 100 µM (inactive)

Input line: # get_value(readout= GI50, system= SF-268) for O=C1C=CC(=O)c2c1ccc1c3ccccc3n(CCCCCCCCn3c4ccccc4c4ccc5c(c43)C(=O)C=CC5=O)c21
Output line: > 100 µM (inactive)

Input line: # get_value(readout= GI50, system= SF-268) for CCC(O)c1ccc(/N=C/c2ccccc2O)cc1 (stereo not drawn)
Output line: > 100 µM (inactive)

Input line: # get_value(readout= GI50, system= SF-268) for Cc1cc(C)n(CN(Cn2nc(C)cc2C)c2ccccc2)n1
Output line: 20.4 µM (inactive)

Input line: # get_value(readout= GI50, system= SF-268) for Cc1ccc(S(=O)(=O)Nn2c(O)c(C#N)c(-c3ccc([N+](=O)[O-])cc3)c(C#N)c2=O)cc1
Output line: > 100 µM (inactive)

Input line: # get_value(readout= GI50, system= SF-268) for C=CC[C@]12C[C@@H](C(=O)OC)N(C(=O)OC)[C@H]1N(S(=O)(=O)c1ccccc1)c1ccccc12
Output line: 78.2 µM (inactive)

Input line: # get_value(readout= GI50, system= SF-268) for Clc1ccc(C2=NN(c3ccccc3)C3c4cc(Br)ccc4OCC23)cc1 (stereo not drawn)
Output line: 53.6 µM (inactive)

Input line: # get_value(readout= GI50, system= SF-268) for COc1cc2c3c(c1)CCCN3CCC2
Output line: > 10 µM (inactive)

Input line: # get_value(readout= GI50, system= SF-268) for CC(Oc1ccccc1Cl)C(=O)NN1C(=O)CC(=O)N(c2ccc(Cl)cc2)C1=S (stereo not drawn)
Output line: 67.1 µM (inactive)

Input line: # get_value(readout= GI50, system= SF-268) for CN(C)NC1=NS(=O)(=O)c2cc3c(=O)n(C)[nH]c3cc2S1
Output line: > 10 µM (inactive)

Input line: # get_value(readout= GI50, system= SF-268) for Cc1ncc2c(=O)c3c(oc2n1)c1ccccc1n3Cc1ccccc1
Output line: > 100 µM (inactive)

Input line: # get_value(readout= GI50, system= SF-268) for N#C/C(=C/Sc1ccccc1)C(=O)O
Output line: 8.59 µM (inactive)

Input line: # get_value(readout= GI50, system= SF-268) for CCN(CC)CCN(/C(=N/c1ccccc1)N1CCCCC1)c1ccccc1
Output line: 27.6 µM (inactive)

Input line: # get_value(readout= GI50, system= SF-268) for CN(C)c1ccccc1CC(c1c[nH]c2ccccc12)c1c[nH]c2ccccc12
Output line: 14.8 µM (inactive)

Input line: # get_value(readout= GI50, system= SF-268) for CC(N)/C(N)=N/O (stereo not drawn)
Output line: > 100 µM (inactive)

Input line: # get_value(readout= GI50, system= SF-268) for CC(O)CC(O)(C(F)(F)F)C(F)(F)F (stereo not drawn)
Output line: > 10 µM (inactive)

Input line: # get_value(readout= GI50, system= SF-268) for CCc1c(C)c(C#N)c(=S)n(C2OC(COC(C)=O)C(OC(C)=O)C(OC(C)=O)C2OC(C)=O)c1-c1ccccc1 (stereo not drawn)
Output line: > 31.6 µM (inactive)

Input line: # get_value(readout= GI50, system= SF-268) for CC(C)(C)c1cc[n+](C[n+]2ccc(C(C)(C)C)cc2)cc1
Output line: > 100 µM (inactive)

Input line: # get_value(readout= GI50, system= SF-268) for CC1CC2OC(=N)C1(C#N)C2(C#N)C#N (stereo not drawn)
Output line: 21.8 µM (inactive)
